Below is a list of entries, each paired with its recorded % viability value.
Test system: P. falciparum (NF54) stage V gametocytes
Parameters: Mature stage V gametocyte viability, MitoTracker Red CMXRos high-content imaging
Conditions: primary screen, n=2, fraction of DMSO control; 72 h, 2 µM; inhibitor
The full ranking holds about 68,000 compounds; the median of “% viability” is about 1.1, and the lowest 2% start at about 0.96. For the sample, the lowest values were picked, then their nearest neighbours and some compounds at random. The numbers are fractions of the control, whatever unit the source prints.
Measurement Name: % viability (%)

- Cc1cccc(C2N3CCC4(CC3)c3[nH]c5ccccc5c3CCN24)n1 (stereo not drawn): 1.009
- CCn1[nH]cc2nc(-c3cc(OC)c(OC)cc3OC)nc1-2: 1.131
- Cc1ncsc1C(=O)N1CCCCC1c1cc2[nH]c(C)c(C)c(=O)n2n1 (stereo not drawn): 1.19
- Cn1nc(C2CC2)c(-c2ccc3c(c2)OCO3)c1N: 1.305
- Cn1cc(C(=O)N2CCCC(c3cc(=O)n(C)[nH]3)C2)cn1 (stereo not drawn): 1.105
- CCc1c(C)nn2c(=O)cc(C3CCN(C(=O)c4ccccn4)C3)[nH]c12 (stereo not drawn): 1.115
- CCn1[nH]cc2nc(-c3ccc(OC)c(COC)c3)nc1-2: 1.204
- COCCC(=O)N1CCC(c2cc(=O)n(C)[nH]2)C1 (stereo not drawn): 1.179
- COCC(=O)N1Cc2[nH]c3c(C)c(-c4cccs4)nn3c(=O)c2C1: 0.9901
- Cc1[nH]c2cc(C3CCN(Cc4ccccc4F)C3)nn2c(=O)c1C (stereo not drawn): 0.9944
- CCc1c(C)[nH]c2cc(C3CCN(Cc4cccc(F)c4)C3)nn2c1=O (stereo not drawn): 1.163
- Cc1cc(=O)n(-c2ccc3nnc(C)n3n2)[nH]1: 1.151
